Test: Single-dose pharmacokinetics of Compound B, fasted and fed cohorts
Assay type: in vivo, human
Conditions: human, plasma, oral, 8 mg, single dose 8 mg, Cohort 6, fasted; read-out: Tmax Median (Q1, Q3)
ENDPOINT_NAME: Tmax

Exam item: Provide measured Tmax value, entry: CCCCOc1nc(N)c2c(n1)N(Cc1cccc(CN3CCCC3)c1)CC(=O)N2 [Compound B]
Marked response: 2.51 h

* * *

Assay: Single-dose pharmacokinetics of Compound B, fasted and fed cohorts
Assay type: in vivo, human
Conditions: human, plasma, oral, 4 mg, single dose 4 mg, Cohort 4, fasted; read-out: T½ Median (Q1, Q3) (converted)
ENDPOINT_NAME: half-life (h)
// return numeric value only (unit: h, not printed)

Exam item: Given CCCCOc1nc(N)c2c(n1)N(Cc1cccc(CN3CCCC3)c1)CC(=O)N2 , respond with its half-life.
Marked response: 17.2

* * *

Assay: Single-dose pharmacokinetics of Compound B, fasted and fed cohorts
Assay type: in vivo, human
Details: human, plasma, oral, 1 mg, single dose 1 mg, Cohort 2, fasted; read-out: Tmax Median (Q1, Q3)
ENDPOINT_NAME: Tmax (h)
Could you give me the number in h? Just the number is fine.

Exam item: Return Tmax (reported value) for this compound: CCCCOc1nc(N)c2c(n1)N(Cc1cccc(CN3CCCC3)c1)CC(=O)N2
Marked response: 3

* * *

Experiment: Single-dose pharmacokinetics of Compound B, fasted and fed cohorts
Type: in vivo, human
Details: human, plasma, oral, 2 mg, single dose 2 mg, Cohort 3, fasted; read-out: AUCinf Mean (% CV)
ENDPOINT_NAME: AUC(0-inf) (ng·h/mL)
A number alone suffices; assume ng·h/mL.

Exam item: Return reported AUC(0-inf). Input compound: CCCCOc1nc(N)c2c(n1)N(Cc1cccc(CN3CCCC3)c1)CC(=O)N2
Marked response: 11.3

* * *

Test: Single-dose pharmacokinetics of Compound B, fasted and fed cohorts
Assay type: in vivo, human
Settings: human, plasma, oral, 8 mg, single dose 8 mg with a high-fat meal, IFE Cohort; read-out: Cmax Mean (% CV)
ENDPOINT_NAME: Cmax (ng/mL)
Use ng/mL as the unit, but write only the number.

Exam item: Let me know recorded Cmax for CCCCOc1nc(N)c2c(n1)N(Cc1cccc(CN3CCCC3)c1)CC(=O)N2 [Compound B] , thanks.
Marked response: 5.24

* * *

Experiment: Single-dose pharmacokinetics of Compound B, fasted and fed cohorts
Assay type: in vivo, human
Details: human, plasma, oral, 0.3 mg, single dose 0.3 mg, Cohort 1, fasted; plasma measured only to 24 hours, interpret with caution; read-out: T½ Median (Q1, Q3) (converted)
ENDPOINT_NAME: half-life (h)
Respond numerically; units are h and should not be typed.

Exam item: Look up and state reported half-life for CCCCOc1nc(N)c2c(n1)N(Cc1cccc(CN3CCCC3)c1)CC(=O)N2
Marked response: 10.4

* * *

Test: Single-dose pharmacokinetics of Compound B, fasted and fed cohorts
Format: in vivo, human
Conditions: human, plasma, oral, 12 mg, single dose 12 mg, Cohort 7, fasted; read-out: AUCinf Mean (% CV)
ENDPOINT_NAME: AUC(0-inf) (ng·h/mL)
Could you give me the number in ng·h/mL? Just the number is fine.

Exam item: Supply recorded AUC(0-inf) for CCCCOc1nc(N)c2c(n1)N(Cc1cccc(CN3CCCC3)c1)CC(=O)N2 [Compound B] here.
Marked response: 140

* * *

Assay: Single-dose pharmacokinetics of Compound B, fasted and fed cohorts
Format: in vivo, human
Conditions: human, plasma, oral, 12 mg, single dose 12 mg, Cohort 7, fasted, plasma; read-out: Cmax Mean (% CV)
ENDPOINT_NAME: Cmax (ng/mL)
Just the number in ng/mL, nothing appended.

Exam item: Consider the compound CCCCOc1nc(N)c2c(n1)N(Cc1cccc(CN3CCCC3)c1)CC(=O)N2 and give its recorded Cmax.
Marked response: 12

* * *

Experiment: Single-dose pharmacokinetics of Compound B, fasted and fed cohorts
Assay type: in vivo, human
Settings: human, plasma, oral, 6 mg, single dose 6 mg, Cohort 5, fasted; read-out: AUCinf Mean (% CV)
ENDPOINT_NAME: AUC(0-inf)
Your reply should be a number followed by the unit it is expressed in.

Exam item: Please report the measured AUC(0-inf) for CCCCOc1nc(N)c2c(n1)N(Cc1cccc(CN3CCCC3)c1)CC(=O)N2
Marked response: 76.9 ng·h/mL

* * *

Test: Single-dose pharmacokinetics of Compound B, fasted and fed cohorts
Format: in vivo, human
Details: human, plasma, oral, 6 mg, single dose 6 mg, Cohort 5, fasted; read-out: T½ Median (Q1, Q3) (converted)
ENDPOINT_NAME: half-life (h)
Expressed in h, but write only the number.

Exam item: For the compound CCCCOc1nc(N)c2c(n1)N(Cc1cccc(CN3CCCC3)c1)CC(=O)N2 , report half-life.
Marked response: 14.7

* * *

Experiment: Single-dose pharmacokinetics of Compound B, fasted and fed cohorts
Assay type: in vivo, human
Settings: human, plasma, oral, 8 mg, single dose 8 mg post high-fat meal (4 hours), Cohort 9; read-out: Tmax Median (Q1, Q3)
ENDPOINT_NAME: Tmax (h)
The response must be a number in h with no trailing unit.

Exam item: Report measured Tmax; entry is CCCCOc1nc(N)c2c(n1)N(Cc1cccc(CN3CCCC3)c1)CC(=O)N2 [Compound B]
Marked response: 5

* * *

Test: Single-dose pharmacokinetics of Compound B, fasted and fed cohorts
Format: in vivo, human
Settings: human, plasma, oral, 6 mg, single dose 6 mg, Cohort 5, fasted, plasma; read-out: Cmax Mean (% CV)
ENDPOINT_NAME: Cmax (ng/mL)
Quick reminder: number only, in ng/mL, skip the unit.

Exam item: State its Cmax for this molecule: CCCCOc1nc(N)c2c(n1)N(Cc1cccc(CN3CCCC3)c1)CC(=O)N2
Marked response: 7.26

* * *

Assay: Single-dose pharmacokinetics of Compound B, fasted and fed cohorts
Assay type: in vivo, human
Settings: human, plasma, oral, 8 mg, single dose 8 mg with a moderate-fat meal, Cohort 8; read-out: T½ Median (Q1, Q3) (converted)
ENDPOINT_NAME: half-life (h)
Write down the numeric answer in h and omit the unit.

Exam item: Please give measured half-life of the following entry: CCCCOc1nc(N)c2c(n1)N(Cc1cccc(CN3CCCC3)c1)CC(=O)N2
Marked response: 21.6

* * *

Test: Single-dose pharmacokinetics of Compound B, fasted and fed cohorts
Type: in vivo, human
Conditions: human, plasma, oral, 4 mg, single dose 4 mg, Cohort 4, fasted; read-out: Tmax Median (Q1, Q3)
ENDPOINT_NAME: Tmax (h)
Your answer is read as h, so omit the unit and give the number.

Exam item: Check the records and state Tmax for CCCCOc1nc(N)c2c(n1)N(Cc1cccc(CN3CCCC3)c1)CC(=O)N2 [Compound B]
Marked response: 4

* * *

Assay: Single-dose pharmacokinetics of Compound B, fasted and fed cohorts
Format: in vivo, human
Settings: human, plasma, oral, 8 mg, single dose 8 mg with a moderate-fat meal, Cohort 8; read-out: Cmax Mean (% CV)
ENDPOINT_NAME: Cmax
Note: a bare number is incomplete; add the unit.

Exam item: Provide only the value of recorded Cmax for CCCCOc1nc(N)c2c(n1)N(Cc1cccc(CN3CCCC3)c1)CC(=O)N2
Marked response: 2.04 ng/mL

* * *

Experiment: Single-dose pharmacokinetics of Compound B, fasted and fed cohorts
Format: in vivo, human
Conditions: human, plasma, oral, 2 mg, single dose 2 mg, Cohort 3, fasted; read-out: T½ Median (Q1, Q3) (converted)
ENDPOINT_NAME: half-life

Exam item: // fetch half-life given entry CCCCOc1nc(N)c2c(n1)N(Cc1cccc(CN3CCCC3)c1)CC(=O)N2 [Compound B]
Marked response: 24.3 h

* * *

Test: Single-dose pharmacokinetics of Compound B, fasted and fed cohorts
Format: in vivo, human
Conditions: human, plasma, oral, 0.3 mg, single dose 0.3 mg, Cohort 1, fasted; limited terminal phase data, interpret with caution; read-out: AUCinf Mean (% CV)
ENDPOINT_NAME: AUC(0-inf) (ng·h/mL)
Value expressed in ng·h/mL; do not type the unit.

Exam item: Output measured AUC(0-inf) for this item: CCCCOc1nc(N)c2c(n1)N(Cc1cccc(CN3CCCC3)c1)CC(=O)N2
Marked response: 2.97

* * *

Test: Single-dose pharmacokinetics of Compound B, fasted and fed cohorts
Format: in vivo, human
Details: human, plasma, oral, 12 mg, single dose 12 mg, Cohort 7, fasted; read-out: T½ Median (Q1, Q3) (converted)
Procedure: Table 1 and Table 2 present the PK parameters of Compound B following the administration of a single dose of Compound B in the fasted cohorts and fed cohorts, respectively. Mean maximal plasma concentration values (Cmax) were higher with increasing dose in the fasted treatment groups. Mean maximal plasma concentration values were lower when Compound B (8 mg) was administered with moderate- or high-fat meal or following a high fat-meal than when Compound B was administered under fasting conditions.
ENDPOINT_NAME: half-life
Please don't drop the unit; write it after the number.

Exam item: # return recorded half-life for input CCCCOc1nc(N)c2c(n1)N(Cc1cccc(CN3CCCC3)c1)CC(=O)N2
Marked response: 16.3 h

Taken from patent US20130157973A1.
